Reported pIC50 for target or system cGMP-specific 3',5'-cyclic phosphodiesterase (Homo sapiens, UniProt O76074), by entry.
pIC50: −log10 of the molar value.

chemical_smiles: CN1C(=O)c2c(nc(Cc3ccc(-c4ccccc4)cc3)n2Cc2ccccc2)N2C1=N[C@@H]1CCC[C@@H]12
pIC50: 6.52
--
chemical_smiles: Cc1nc2c(n1Cc1ccccc1)C(=O)N(C)C1=N[C@@H]3CCC[C@@H]3N12
pIC50: 6.65
--
chemical_smiles: CN1C(=O)c2c(nc(CC3CCCC3)n2Cc2ccccc2)N2C1=N[C@@H]1CCC[C@@H]12
pIC50: 6.56

* * *

# study_system: UniProtKB O76074
Just a reminder that ties go to 0.0: only IC50 strictly below 200 nM counts as 1.0.

chemical_smiles: CN1C(=O)c2c(nc(CC3CC3)n2Cc2ccccc2)N2C1=N[C@@H]1CCC[C@@H]12
class: 0.0
//
chemical_smiles: CN1C(=O)c2c(nc(Cc3ccccc3)n2Cc2ccccc2)N2C1=N[C@@H]1CCC[C@@H]12
class: 1.0
//
chemical_smiles: CN1C(=O)c2[nH]c(CC3CCCC3)nc2N2CC3(CCCC3)N=C12
class: 1.0
//
chemical_smiles: CN1C(=O)c2[nH]c(Cc3ccc(-c4ccccc4)cc3)nc2N2CC3(CCCC3)N=C12
class: 1.0
//
chemical_smiles: CCN1C(=O)c2[nH]c(C)nc2N2C1=N[C@@H]1CCC[C@@H]12
class: 1.0
//
chemical_smiles: CN1C(=O)c2[nH]c(CN3CCCC3)nc2N2C1=N[C@@H]1CCC[C@@H]12
class: 0.0
//
chemical_smiles: CN1C(=O)c2c(nc(Cc3ncc[nH]3)n2Cc2ccccc2)N2C1=N[C@@H]1CCC[C@@H]12
class: 0.0
//
chemical_smiles: CN1C(=O)c2c(nc(Cc3ccccc3)n2Cc2ccccc2)N2CC3(CCCC3)N=C12
class: 1.0
//
chemical_smiles: Cc1nc2c([nH]1)C(=O)N(C(C)C)C1=N[C@@H]3CCC[C@@H]3N12
class: 0.0

* * *

# study_system: cGMP-specific 3',5'-cyclic phosphodiesterase (Homo sapiens, UniProt O76074)
Just a reminder that ties go to FALSE: only IC50 strictly below 4 µM counts as TRUE.

chemical_smiles: CN1C(=O)c2c(nc(Cc3ccccc3)n2CCO)N2C1=N[C@@H]1CCC[C@@H]12
class: FALSE

chemical_smiles: CN1C(=O)c2c(nc(Cc3ccccc3)n2C)N2CC3(CCCC3)N=C12
class: FALSE

chemical_smiles: CN1C(=O)c2[nH]c(Cc3ccc(-c4ccccc4)cc3)nc2N2C1=N[C@@H]1CCC[C@@H]12
class: TRUE

chemical_smiles: CN1C(=O)c2c(nc(Cc3ccccc3)n2Cc2cccnc2)N2C1=N[C@@H]1CCC[C@@H]12
class: FALSE

chemical_smiles: CN1C(=O)c2[nH]c(Cc3ncc[nH]3)nc2N2C1=N[C@@H]1CCC[C@@H]12
class: FALSE

chemical_smiles: CN1C(=O)c2c(nc(-c3ccccc3)n2Cc2ccccc2)N2CC3(CCCC3)N=C12
class: TRUE

chemical_smiles: CCCCCCc1nc2c(n1Cc1ccccc1)C(=O)N(C)C1=N[C@@H]3CCC[C@@H]3N12
class: TRUE

chemical_smiles: CC(C)CCc1nc2c(n1Cc1ccccc1)C(=O)N(C)C1=N[C@@H]3CCC[C@@H]3N12
class: TRUE
